# METHOD NOTES: Volume of distribution at steady state in monkey
# Type: ADME, organism-based, Macaca mulatta
# EXPERIMENTAL PARAMETERS: rhesus monkey, in vivo; read-out: Vdss
MEASUREMENT LABEL: Vd (L/kg)
Unit L/kg implied. Number only.

Name the recorded Vd for `CNC(=O)c1ccc2[nH]nc(Cc3ccc4c(cnn4C)c3)c2c1` . 0.95

----------
# METHOD NOTES: Oral bioavailability in rat
# Type: ADME, organism-based
# EXPERIMENTAL PARAMETERS: in vivo
MEASUREMENT LABEL: bioavailability (%)
Unit % implied. Number only.

Name the recorded bioavailability for `CNC(=O)c1ccc2[nH]nc(Cc3ccc4c(cnn4C)c3)c2c1` . 88

----------
# METHOD NOTES: Solubility of the compound in FeSSIF at pH 5.2
# Assay type: physicochemical
MEASUREMENT LABEL: solubility (mg/mL)
Unit mg/mL implied. Number only.

Name the recorded solubility for `CNC(=O)c1ccc2[nH]nc(Cc3ccc4c(cnn4C)c3)c2c1` . 0.059

----------
# METHOD NOTES: Oral bioavailability in mouse
# Assay type: ADME, organism-based
# EXPERIMENTAL PARAMETERS: in vivo
MEASUREMENT LABEL: bioavailability (%)
Unit % implied. Number only.

Name the recorded bioavailability for `CNC(=O)c1ccc2[nH]nc(Cc3ccc4c(cnn4C)c3)c2c1` . 50

----------
# METHOD NOTES: physchem
MEASUREMENT LABEL: solubility kinetic

Name the recorded solubility kinetic for `Cn1cc(-c2ccc(Cc3n[nH]c4ccc(C(=O)N5CCC(F)(F)C5)cc34)cc2)cn1` . 104 µM

Name the recorded solubility kinetic for `Cn1cc(-c2ccc(Cc3n[nH]c4ccc(C(=O)N5CC(F)(F)C5)cc34)cc2)cn1` . 89 µM

Name the recorded solubility kinetic for `CC(=O)Nc1ccc2[nH]nc(Cc3ccc(-c4cnn(C)c4)cc3)c2c1` . 115 µM

Name the recorded solubility kinetic for `Cn1cc(-c2ccc(Cc3n[nH]c4ccc(C(=O)N5CCOCC5)cc34)cc2)cn1` . 170 µM

Name the recorded solubility kinetic for `CNC(=O)c1ccc2[nH]nc(Cc3ccc4c(cnn4C)c3)c2c1` . > 200 µM

Name the recorded solubility kinetic for `CNC(=O)c1ccc2[nH]nc(Cc3cccc(C)c3)c2c1` . 167 µM

Name the recorded solubility kinetic for `Cn1cc(-c2ccc(Cc3n[nH]c4ccc(C(=O)N5CC[C@@H](O)C5)cc34)cc2)cn1` . 181 µM

Name the recorded solubility kinetic for `CNC(=O)c1ccc2[nH]nc(Cc3ccc(-c4cnn(C)c4)cc3)c2c1` . 169 µM

Name the recorded solubility kinetic for `CC(=O)NCCNc1ccc2[nH]nc(Cc3ccc(-c4cnn(C)c4)cc3)c2c1` . 183 µM

Name the recorded solubility kinetic for `Cn1cc(-c2ccc(Cc3n[nH]c4ccc(C(=O)N5CC(O)C5)cc34)cc2)cn1` . 196 µM

Name the recorded solubility kinetic for `Cn1cc(-c2ccc(Cc3n[nH]c4ccc(C(=O)N5CCCCC5)cc34)cc2)cn1` . 106 µM

Name the recorded solubility kinetic for `Cn1cc(-c2ccc(Cc3n[nH]c4ccc(C(N)=O)cc34)cc2)cn1` . 173 µM

Name the recorded solubility kinetic for `Cn1ncc2cc(Cc3n[nH]c4ccc(C(=O)N5CC[C@H](O)C5)cc34)ccc21` . > 200 µM

Name the recorded solubility kinetic for `Cn1cc(-c2ccc(Cc3n[nH]c4ccc(N5CCCC5=O)cc34)cc2)cn1` . 147 µM

Name the recorded solubility kinetic for `CNC(=O)c1ccc2[nH]nc(Cc3ccc4cnn(C)c4c3)c2c1` . 192 µM

Name the recorded solubility kinetic for `COC1CN(C(=O)c2ccc3[nH]nc(Cc4ccc5c(cnn5C)c4)c3c2)C1` . > 200 µM

Name the recorded solubility kinetic for `CNC(=O)c1ccc2[nH]nc(Cc3ccc(-c4cnn(CC(C)(C)O)c4)cc3)c2c1` . 182 µM

Name the recorded solubility kinetic for `Cn1cc(-c2ccc(Cc3n[nH]c4ccc(-c5cc(N)ccn5)cc34)cc2)cn1` . 53 µM

Name the recorded solubility kinetic for `Cn1cc(-c2ccc(Cc3n[nH]c4ccc(N5CCOCC5)cc34)cc2)cn1` . 153 µM

Name the recorded solubility kinetic for `Cn1cc(-c2ccc(Cc3n[nH]c4ccc(S(=O)(=O)NC5CC5)cc34)cc2)cn1` . 107 µM
